# experimental target: WRKY50BD (Arabidopsis thaliana Col-0, UniProt Q8VWQ5 86-173)
# Sequence (Q8VWQ5 86-173): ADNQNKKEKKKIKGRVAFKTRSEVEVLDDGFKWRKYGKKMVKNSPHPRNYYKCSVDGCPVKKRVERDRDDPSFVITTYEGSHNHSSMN
# measurement notes: competition EMSA; 100-fold excess vs S24 probe; EMSA with 4-5 ug recombinant protein, 32P probe, 100-fold molar excess competitor; binding buffer, salt, pH and temperature not given (cites Kanofsky et al. 2018)
# assay conditions: tags: His tag (pQE-30, Ni purification; tag not spelled out)
readout kind: binding result

S24mut2 (dsDNA) DNA 1: TAACTGGCATGTTGGACTTTCCAAATTCACCAGTT DNA 2: AACTGGTGAATTTGGAAAGTCCAACATGCCAGTTA = binds
S24mut8 (dsDNA) DNA 1: TGGTCAATGCACCGGACTTTCCAAATTCATTGACC DNA 2: GGTCAATGAATTTGGAAAGTCCGGTGCATTGACCA = binds
S24mut9 (dsDNA) DNA 1: TGGTCAGCATGTTGGACTTTCCGGGCCTGTTGACC DNA 2: GGTCAACAGGCCCGGAAAGTCCAACATGCTGACCA = binds
